# target_of_assay: Angiotensin II receptor (AT-1) type-1 (Rattus norvegicus, UniProt P29089+P25095)
# protocol_notes: In vitro binding affinity to angiotensin II receptor, type 1 in rat adrenal cortex preparation
# Assay type: tissue-based
readout_label: IC50 (nM)

Please review the entries below; each comes with its answer.
CCCCc1ccc(CNC(=O)Nc2ccccc2)c(=O)n1Cc1ccc(-c2ccccc2-c2nn[nH]n2)cc1    18
CCCCc1ccc(CN(C(C)C)S(C)(=O)=O)c(=O)n1Cc1ccc(-c2ccccc2-c2nn[nH]n2)cc1    1.9
CCCCc1ccc(CN(C)C(=O)N(C)C)c(=O)n1Cc1ccc(-c2ccccc2-c2nn[nH]n2)cc1    13
CCCCc1ccc(C)c(=O)n1Cc1ccc(-c2ccccc2-c2nn[nH]n2)cc1    6.1
CCCCc1ccc(CN(Cc2ccccc2)S(C)(=O)=O)c(=O)n1Cc1ccc(-c2ccccc2-c2nn[nH]n2)cc1    3.8
CCCCc1ccc(C#N)c(=O)n1Cc1ccc(-c2ccccc2-c2nn[nH]n2)cc1    18

a = CCCCc1ccc(CNC(=O)Cc2ccccc2)c(=O)n1Cc1ccc(-c2ccccc2-c2nn[nH]n2)cc1
b = CCCCc1ccc(CNC(=O)NC2CCCCC2)c(=O)n1Cc1ccc(-c2ccccc2-c2nn[nH]n2)cc1
Ask: Pick the one with the larger IC50: a vs b Reply with the label of the item you choose.
Reply: b
